assay: physchem; conditions: phosphate buffer, pH 7.4
Description: Aqueous solubility of the compound in phosphate buffer solution of pH 7.4 after 24 hrs by LC-UV analysis
Please provide measured solubility at 24 h for the entries that follow.

Ask: Input O=C(O)CCC[C@@H]1c2ccccc2C[C@H]1NC(=O)c1cc2cc(F)ccc2[nH]1 , output reported solubility at 24 h.
Reply: 86 µM

Ask: Hello, please tell me recorded solubility at 24 h for this one: O=C(O)C[C@@H]1c2ccccc2C[C@H]1NC(=O)c1cc2cc(F)ccc2[nH]1
Reply: 1930 µM

Ask: State its solubility at 24 h for this molecule: COc1ccc(Cl)cc1C(=O)NCCc1ccc(S(=O)(=O)NC(=O)NC2CCCCC2)cc1 [GLYBURIDE]
Reply: 11 µM

Ask: Report measured solubility at 24 h; entry is CC(=O)Nc1nc(C)c(-c2cnc(F)c(NS(=O)(=O)c3sc(C)nc3C)c2)s1
Reply: > 1700 µM

====

target: human serum albumin site 1 (Homo sapiens, UniProt P02768); assay: in vitro; conditions: fatty acid containing human serum albumin, pH 7.4, probe warfarin
Sequence (P02768 whole entry): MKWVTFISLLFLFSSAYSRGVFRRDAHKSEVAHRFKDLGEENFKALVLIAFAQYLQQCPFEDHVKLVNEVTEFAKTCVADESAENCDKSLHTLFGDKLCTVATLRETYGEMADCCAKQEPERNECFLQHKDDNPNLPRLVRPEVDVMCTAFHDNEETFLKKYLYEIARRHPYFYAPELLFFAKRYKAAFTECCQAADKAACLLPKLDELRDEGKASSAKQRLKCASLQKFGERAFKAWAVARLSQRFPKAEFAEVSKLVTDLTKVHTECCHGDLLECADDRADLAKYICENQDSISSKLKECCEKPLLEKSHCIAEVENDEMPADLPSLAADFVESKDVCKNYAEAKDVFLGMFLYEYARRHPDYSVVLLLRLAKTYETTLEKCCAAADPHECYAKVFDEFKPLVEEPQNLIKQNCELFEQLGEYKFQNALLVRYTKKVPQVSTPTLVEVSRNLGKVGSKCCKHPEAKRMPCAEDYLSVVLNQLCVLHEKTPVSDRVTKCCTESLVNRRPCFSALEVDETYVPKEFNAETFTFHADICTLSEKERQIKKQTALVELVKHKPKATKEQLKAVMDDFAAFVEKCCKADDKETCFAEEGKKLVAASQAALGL
Description: Displacement of radiolabeled warfarin from fatty acid containing human serum albumin site 1 in phosphate buffer at pH 7.4 at 12 uM by fluorescence spectroscopy
recorded metric: inhibition at 12 µM (%)
Your answer should be a plain number; it is taken to be in %.

Ask: Report inhibition at 12 µM for NS(=O)(=O)c1cc(C(=O)O)c(NCc2ccco2)cc1Cl [FUROSEMIDE]
Reply: 47.3

Ask: Annotate the molecule CC/C(=C(\c1ccccc1)c1ccc(OCCN(C)C)cc1)c1ccccc1 with its measured inhibition at 12 µM.
Reply: 0

Ask: State its inhibition at 12 µM for this molecule: CC(C)NCC(O)COc1cccc2[nH]ccc12 (stereo not given)
Reply: 0

Ask: Look up and report measured inhibition at 12 µM for this entry: O=C1NC(=O)C(c2ccccc2)(c2ccccc2)N1
Reply: 9.3

Ask: Using known records, supply inhibition at 12 µM for O=C1C(CC[S+]([O-])c2ccccc2)C(=O)N(c2ccccc2)N1c1ccccc1 (stereo not given)
Reply: 44.1

Ask: Read the entry O=C(O)CCC(=O)c1ccc(-c2ccccc2)cc1 and write its reported inhibition at 12 µM.
Reply: 0

Ask: Specify measured inhibition at 12 µM for CC(=O)CC(c1ccc([N+](=O)[O-])cc1)c1c(O)c2ccccc2oc1=O (stereo not given) .
Reply: 54.6

Ask: Return inhibition at 12 µM (reported value) for this molecule: Cc1cc(NC(=O)C2=C(O)c3ccccc3S(=O)(=O)N2C)no1
Reply: 38

Ask: Recall and state the measured inhibition at 12 µM for CN1C(C(=O)Nc2ccccn2)=C(O)c2ccccc2S1(=O)=O .
Reply: 53.5

Ask: Provide only the value of recorded inhibition at 12 µM for N[C@@H](Cc1c[nH]c2ccccc12)C(=O)O
Reply: 0

Ask: Quick one: give measured inhibition at 12 µM for CN1C(C(=O)Nc2ccccn2)=C(O)c2sccc2S1(=O)=O
Reply: 61.7

Ask: Identify measured inhibition at 12 µM associated with CCN(CC)CCN1C(=O)CN=C(c2ccccc2F)c2cc(Cl)ccc21
Reply: 6.3

Ask: Quickly give me recorded inhibition at 12 µM for COc1ccc(Cl)cc1C(=O)NCCc1ccc(S(=O)(=O)NC(=O)NC2CCCCC2)cc1 [GLYBURIDE]
Reply: 50.7

Ask: Consider the molecule O=C1CN=C(c2ccccc2Cl)c2cc([N+](=O)[O-])ccc2N1 . State its measured inhibition at 12 µM.
Reply: 3.8

Ask: Complete the entry with inhibition at 12 µM for Cc1onc(-c2ccccc2Cl)c1C(=O)N[C@@H]1C(=O)N2[C@@H]1SC(C)(C)[C@@H]2C(=O)O
Reply: 5.7

Ask: Annotate the molecule COc1ccc2cc([C@H](C)C(=O)O)ccc2c1 with its measured inhibition at 12 µM.
Reply: 38.8

Ask: Answer with the recorded inhibition at 12 µM for the molecule listed here: NS(=O)(=O)c1cc2c(cc1Cl)N=CNS2(=O)=O [CHLOROTHIAZIDE]
Reply: 16

Ask: Identify measured inhibition at 12 µM corresponding to O=C(O)c1ccccc1Nc1cccc(C(F)(F)F)c1
Reply: 68.6

Ask: Consider the molecule O=c1oc2ccccc2c(O)c1Cc1c(O)c2ccccc2oc1=O . State its measured inhibition at 12 µM.
Reply: 10.5

Ask: Return the recorded inhibition at 12 µM value; entry: CCCNC(=O)NS(=O)(=O)c1ccc(Cl)cc1 [CHLORPROPAMIDE]
Reply: 18.5
